Target or test system: Tyrosine-protein phosphatase non-receptor type 11 (Homo sapiens, UniProt Q06124, E76K)
Sequence (Q06124 2-593 E76K limits assumed): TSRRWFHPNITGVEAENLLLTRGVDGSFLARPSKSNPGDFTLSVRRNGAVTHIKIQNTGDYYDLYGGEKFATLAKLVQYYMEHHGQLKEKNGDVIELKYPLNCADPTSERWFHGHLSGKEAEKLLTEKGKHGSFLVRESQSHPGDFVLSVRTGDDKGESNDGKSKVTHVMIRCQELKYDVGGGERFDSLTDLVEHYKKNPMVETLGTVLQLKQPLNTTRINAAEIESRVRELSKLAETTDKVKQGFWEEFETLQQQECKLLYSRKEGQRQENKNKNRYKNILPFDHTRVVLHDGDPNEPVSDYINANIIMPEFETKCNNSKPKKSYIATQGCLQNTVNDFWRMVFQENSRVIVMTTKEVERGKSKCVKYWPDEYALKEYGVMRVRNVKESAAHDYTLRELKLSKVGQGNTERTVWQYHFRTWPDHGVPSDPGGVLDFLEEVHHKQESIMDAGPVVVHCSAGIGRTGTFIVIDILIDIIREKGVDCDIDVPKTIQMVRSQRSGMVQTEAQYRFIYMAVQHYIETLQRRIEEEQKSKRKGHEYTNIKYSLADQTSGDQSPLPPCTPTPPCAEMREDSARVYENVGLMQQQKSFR
Assay notes: Inhibition of SHP2 (unknown origin) E76K mutant
Readout label: IC50 (µM)
Value expressed in µM; do not type the unit.

// compound CCOc1cc(O)c(C(=O)/C=C/c2ccc(Cl)cc2Cl)cc1CN1CCC=C(C2C(=O)Nc3ccccc32)C1 (stereo unspecified) , assay Tyrosine-protein phosphatase non-receptor type 11 (Homo sapiens, UniProt Q06124, E76K), IC50 value: 7.67

====

Parameter IC50, tested on Arginase-2, mitochondrial (Homo sapiens), listed per item.
Sequence (P78540 whole entry): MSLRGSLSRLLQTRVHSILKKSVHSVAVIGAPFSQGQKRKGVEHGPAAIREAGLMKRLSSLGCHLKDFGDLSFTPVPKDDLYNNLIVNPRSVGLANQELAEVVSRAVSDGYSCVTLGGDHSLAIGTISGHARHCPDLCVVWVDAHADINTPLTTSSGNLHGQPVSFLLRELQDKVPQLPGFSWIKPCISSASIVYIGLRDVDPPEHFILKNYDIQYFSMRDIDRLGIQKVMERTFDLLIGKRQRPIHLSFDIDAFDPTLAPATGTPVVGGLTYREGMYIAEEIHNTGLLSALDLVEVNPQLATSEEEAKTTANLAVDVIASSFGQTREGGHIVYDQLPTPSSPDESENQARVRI
Value expressed in nM; do not type the unit.

Reported IC50 of N[C@@H](CSCCB(O)O)C(=O)O : 30

Reported IC50 of N=C(NO)NCC[C@H](N)C(=O)O : 51

Reported IC50 of N[C@@H](CCCCB(O)O)C(=O)O : 8.5

Reported IC50 of N=C(NO)NCCC[C@H](N)C(=O)O : 1600

====

I'd appreciate it if you could supply pIC50 values for the items below.
Target or test system: Tyrosine-protein phosphatase non-receptor type 11 (Homo sapiens, UniProt Q06124)
Assay notes: Inhibition of SHP (unknown origin)
API: returns pIC50 as number; meaning -log10 of concentration in mol/L.

Reported pIC50 of Cc1nc(N2CCC(C)(N)CC2)c(CO)nc1-c1cccc(Cl)c1Cl : 7.15

Reported pIC50 of C[C@@H]1OCC2(CCN(c3nc(N)c(Sc4cccnc4C(F)(F)F)c(=O)n3O)CC2)[C@@H]1N : 7.64

====

Protein target, amino acids: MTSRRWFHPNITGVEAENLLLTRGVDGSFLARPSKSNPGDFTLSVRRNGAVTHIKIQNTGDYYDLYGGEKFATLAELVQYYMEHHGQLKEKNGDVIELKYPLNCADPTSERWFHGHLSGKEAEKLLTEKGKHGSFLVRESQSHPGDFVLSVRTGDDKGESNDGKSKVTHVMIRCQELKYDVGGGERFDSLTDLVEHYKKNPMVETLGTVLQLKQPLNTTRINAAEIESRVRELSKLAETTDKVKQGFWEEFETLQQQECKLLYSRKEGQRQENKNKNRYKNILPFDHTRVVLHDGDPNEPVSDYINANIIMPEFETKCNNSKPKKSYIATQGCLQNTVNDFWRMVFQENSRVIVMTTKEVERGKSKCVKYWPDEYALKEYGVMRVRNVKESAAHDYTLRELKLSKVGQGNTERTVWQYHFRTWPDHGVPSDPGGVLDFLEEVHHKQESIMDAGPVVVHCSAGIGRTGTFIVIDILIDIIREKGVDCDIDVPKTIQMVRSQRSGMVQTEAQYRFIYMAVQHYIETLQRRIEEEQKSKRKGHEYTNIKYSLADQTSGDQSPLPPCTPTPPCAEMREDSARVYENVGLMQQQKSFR
I'd appreciate it if you could supply IC50 values for the items below.
Value expressed in µM; do not type the unit.

Reported IC50 of O=C1/C(=N\Nc2ccc(S(=O)(=O)O)cc2)C(c2ccc([N+](=O)[O-])cc2)NN1c1ccccc1 (centres undefined) : 30

Reported IC50 of CCOC(=O)c1ccc(N2NC(c3ccc([N+](=O)[O-])cc3)/C(=N/Nc3ccc(S(=O)(=O)O)cc3)C2=O)cc1 (centres undefined) : 0.63

Reported IC50 of O=C1Nc2cc(S(=O)(=O)O)ccc2C1/N=N/c1ccccc1[N+](=O)[O-] (centres undefined) : 47

Reported IC50 of Cn1cc(-c2cn(CC(=O)Nc3nc4ccccc4s3)nn2)c2cc(C(=O)O)c(O)cc21 : 5.5

====

Parameter pIC50, tested on Tyrosine-protein phosphatase non-receptor type 11 (Homo sapiens, UniProt Q06124), listed per item.
API: returns pIC50 as number; meaning -log10 of concentration in mol/L.

// molecule C[C@@H]1OCC2(CCN(c3nc(N)c(Sc4cccnc4C(F)(F)F)c(=O)n3O)CC2)[C@@H]1N , assay Tyrosine-protein phosphatase non-receptor type 11 (Homo sapiens, UniProt Q06124), pIC50 value: 7.64

// molecule CCOc1cc(O)c(C(=O)/C=C/c2ccc(Cl)cc2Cl)cc1CN1CCC=C(C2C(=O)Nc3ccccc32)C1 (configuration not stated) , assay Tyrosine-protein phosphatase non-receptor type 11 (Homo sapiens, UniProt Q06124), pIC50 value: 8.01

====

Target or test system: UniProt:P05089
Assay notes: Inhibition of recombinant human ARG1 expressed in Escherichia coli using L-arginine hydrochloride as substrate incubated for 1 hr by colorimetric assay
Readout label: IC50 (nM)
Value expressed in nM; do not type the unit.

// molecule N[C@](CCCCB(O)O)(CCN1CCCCC1)C(=O)O , assay UniProt:P05089, IC50 value: 509

// molecule NC(CCCCB(O)O)(C(=O)O)C1CCN(Cc2ccc(Cl)cc2Cl)CC1 (centres undefined) , assay UniProt:P05089, IC50 value: 86

// molecule N=C(NO)NCCC[C@H](N)C(=O)O , assay UniProt:P05089, IC50 value: 150

// molecule N[C@@](CCCCB(O)O)(C(=O)O)C1CCN(Cc2ccc(Cl)c(Cl)c2)CC1 , assay UniProt:P05089, IC50 value: 200

====

Target or test system: Phosphatidylinositol 3,4,5-trisphosphate 5-phosphatase 1 (Homo sapiens, UniProt Q92835)
Sequence (Q92835 whole entry): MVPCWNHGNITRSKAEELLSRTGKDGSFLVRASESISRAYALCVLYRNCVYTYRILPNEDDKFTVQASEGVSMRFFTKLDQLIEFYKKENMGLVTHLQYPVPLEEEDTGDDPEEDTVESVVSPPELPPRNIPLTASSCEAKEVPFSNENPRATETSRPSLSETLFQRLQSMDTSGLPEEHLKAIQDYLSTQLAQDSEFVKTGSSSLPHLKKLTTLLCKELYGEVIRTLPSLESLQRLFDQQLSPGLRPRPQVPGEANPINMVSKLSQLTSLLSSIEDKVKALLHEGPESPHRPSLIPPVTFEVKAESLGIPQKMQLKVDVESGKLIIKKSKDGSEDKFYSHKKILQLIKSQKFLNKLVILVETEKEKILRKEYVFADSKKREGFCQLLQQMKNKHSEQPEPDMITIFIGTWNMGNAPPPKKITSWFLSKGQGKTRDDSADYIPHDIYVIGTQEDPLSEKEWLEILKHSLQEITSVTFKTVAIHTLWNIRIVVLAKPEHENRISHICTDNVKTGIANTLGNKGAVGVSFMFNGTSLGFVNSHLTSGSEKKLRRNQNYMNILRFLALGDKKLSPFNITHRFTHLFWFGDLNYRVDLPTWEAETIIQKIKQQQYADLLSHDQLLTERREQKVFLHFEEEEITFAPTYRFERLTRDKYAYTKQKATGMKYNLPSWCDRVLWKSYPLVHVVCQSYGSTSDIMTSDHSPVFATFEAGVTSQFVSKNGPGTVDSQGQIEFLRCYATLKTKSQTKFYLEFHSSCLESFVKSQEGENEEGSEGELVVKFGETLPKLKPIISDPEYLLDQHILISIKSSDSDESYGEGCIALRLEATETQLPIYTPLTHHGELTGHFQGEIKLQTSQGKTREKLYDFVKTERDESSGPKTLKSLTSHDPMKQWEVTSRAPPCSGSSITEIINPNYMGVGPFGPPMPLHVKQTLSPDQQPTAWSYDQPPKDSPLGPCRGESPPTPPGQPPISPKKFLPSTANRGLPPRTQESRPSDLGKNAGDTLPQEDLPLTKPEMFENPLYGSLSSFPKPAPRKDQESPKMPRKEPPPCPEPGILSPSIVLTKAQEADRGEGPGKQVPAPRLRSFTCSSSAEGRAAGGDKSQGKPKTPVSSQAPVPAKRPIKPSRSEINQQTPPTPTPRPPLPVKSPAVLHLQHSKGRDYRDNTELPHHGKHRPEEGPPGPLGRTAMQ
Readout label: IC50

Reported IC50 of CC(C)CCC[C@@H](C)[C@H]1CC[C@H]2[C@]3(C)CC[C@H]4C[C@H](N)CC[C@]4(C)[C@H]3CC[C@@]21C : 2.5 µM

====

Target or test system: Tyrosine-protein phosphatase non-receptor type 11 (Homo sapiens)
Assay notes: Inhibition of SHP2 (unknown origin) at 100 mg/mL
Readout label: IC50

Reported IC50 of COC(=O)c1cccc(N/N=C2\C(=O)Nc3ccc(S(=O)(=O)NCc4ccc(F)cc4)cc32)c1 : > 100 µM

====

Readout label: IC50

// molecule N[C@@H](CSCCB(O)O)C(=O)O , assay Arginase-1 (Homo sapiens, UniProt P05089), IC50 value: 270 nM

// molecule N=C(NO)NCCC[C@H](N)C(=O)O , assay Arginase-1 (Homo sapiens, UniProt P05089), IC50 value: 3600 nM

// molecule N[C@@H](CCCCB(O)O)C(=O)O , assay Arginase-1 (Homo sapiens, UniProt P05089), IC50 value: 5 nM

====

Target or test system: Stimulator of interferon genes protein (Homo sapiens)
Sequence (Q86WV6 whole entry): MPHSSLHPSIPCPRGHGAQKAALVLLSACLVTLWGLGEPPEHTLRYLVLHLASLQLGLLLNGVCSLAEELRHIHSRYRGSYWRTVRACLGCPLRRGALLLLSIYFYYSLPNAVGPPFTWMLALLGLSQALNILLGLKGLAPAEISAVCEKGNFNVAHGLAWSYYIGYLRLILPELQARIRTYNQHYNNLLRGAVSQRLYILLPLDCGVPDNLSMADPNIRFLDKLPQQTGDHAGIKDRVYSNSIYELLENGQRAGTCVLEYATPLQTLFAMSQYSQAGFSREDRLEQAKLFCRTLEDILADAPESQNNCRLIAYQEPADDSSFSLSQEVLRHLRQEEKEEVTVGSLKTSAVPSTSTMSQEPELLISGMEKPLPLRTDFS
Assay notes: Agonist activity at STING in human THP1-Dual cells assessed as increase in IFN-beta secretion incubated for 24 hrs
Readout label: pEC50
API: returns pEC50 as number; meaning -log10 of concentration in mol/L.

// molecule CCn1nc(C)cc1C(=O)/C=C1\Nc2cc(C(N)=O)cc(CCCN3CCOCC3)c2N1C/C=C/CN1/C(=C/C(=O)c2cc(C)nn2CC)Nc2cc(C(N)=O)cc(OC)c21 , assay Stimulator of interferon genes protein (Homo sapiens), pEC50 value: 6.89
